B1: SOAT1 (parent)
chain: PSNGRIDIKQLIAKKIKLTAEAEE

Variants of: B1
Assay: protein stability index of a GFP-peptide fusion (GPS, HEK-293T) (PSI 1-6); higher = more stable;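 further: lentivirally expressed fusions sorted by FACS into six bins by GFP to DsRed ratio, PSI derived from sequencing read proportions per bin multiplied by bin number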
Conditions: c terminus: a fixed tail appended
Outcome: rule met for protein stability index of at least 3; rule not met for anything lower.

[[record]]
variant = "A13H"
class_assignment = "rule met"

[[record]]
variant = "K14F"
class_assignment = "rule not met"

[[record]]
variant = "D7S"
class_assignment = "rule met"

[[record]]
variant = "A22S"
class_assignment = "rule met"

[[record]]
variant = "K15W"
class_assignment = "rule not met"

[[record]]
variant = "A20E"
class_assignment = "rule met"

[[record]]
variant = "E21I"
class_assignment = "rule met"

[[record]]
variant = "Q10D"
class_assignment = "rule met"

[[record]]
variant = "E24T"
class_assignment = "rule met"

[[record]]
variant = "G4M"
class_assignment = "rule met"

[[record]]
variant = "E23D"
class_assignment = "rule met"

[[record]]
variant = "I6V"
class_assignment = "rule met"

[[record]]
variant = "P1C"
class_assignment = "rule not met"

[[record]]
variant = "K14P"
class_assignment = "rule met"

[[record]]
variant = "K14E"
class_assignment = "rule met"

[[record]]
variant = "G4L"
class_assignment = "rule met"

[[record]]
variant = "A22Q"
class_assignment = "rule met"

[[record]]
variant = "E21T"
class_assignment = "rule met"

[[record]]
variant = "R5E"
class_assignment = "rule met"

[[record]]
variant = "G4K"
class_assignment = "rule met"

[[record]]
variant = "I12W"
class_assignment = "rule not met"

[[record]]
variant = "A22R"
class_assignment = "rule not met"

[[record]]
variant = "E23M"
class_assignment = "rule not met"

[[record]]
variant = "K15A"
class_assignment = "rule met"

[[record]]
variant = "L18K"
class_assignment = "rule met"

[[record]]
variant = "N3P"
class_assignment = "rule met"

[[record]]
variant = "E24G"
class_assignment = "rule not met"

[[record]]
variant = "K15P"
class_assignment = "rule met"

[[record]]
variant = "R5A"
class_assignment = "rule met"

[[record]]
variant = "I6A"
class_assignment = "rule met"

[[record]]
variant = "E24R"
class_assignment = "rule not met"

[[record]]
variant = "I6N"
class_assignment = "rule met"

[[record]]
variant = "G4C"
class_assignment = "rule met"

[[record]]
variant = "A20Y"
class_assignment = "rule not met"

[[record]]
variant = "K9Q"
class_assignment = "rule met"

[[record]]
variant = "N3I"
class_assignment = "rule met"

[[record]]
variant = "Q10W"
class_assignment = "rule not met"

[[record]]
variant = "R5C"
class_assignment = "rule met"

[[record]]
variant = "I16G"
class_assignment = "rule met"

[[record]]
variant = "P1A"
class_assignment = "rule met"

[[record]]
variant = "K17F"
class_assignment = "rule met"

[[record]]
variant = "L18N"
class_assignment = "rule met"

[[record]]
variant = "K15F"
class_assignment = "rule not met"

[[record]]
variant = "A20M"
class_assignment = "rule not met"

[[record]]
variant = "A20V"
class_assignment = "rule not met"

[[record]]
variant = "E24L"
class_assignment = "rule met"

[[record]]
variant = "Q10V"
class_assignment = "rule not met"

[[record]]
variant = "A20K"
class_assignment = "rule met"

[[record]]
variant = "L11W"
class_assignment = "rule met"

[[record]]
variant = "Q10R"
class_assignment = "rule not met"

[[record]]
variant = "A13R"
class_assignment = "rule met"

[[record]]
variant = "I8M"
class_assignment = "rule met"

[[record]]
variant = "G4R"
class_assignment = "rule met"

[[record]]
variant = "A13M"
class_assignment = "rule met"

[[record]]
variant = "A13S"
class_assignment = "rule met"

[[record]]
variant = "K9D"
class_assignment = "rule met"

[[record]]
variant = "R5G"
class_assignment = "rule met"

[[record]]
variant = "I12S"
class_assignment = "rule met"

[[record]]
variant = "I16K"
class_assignment = "rule met"

[[record]]
variant = "D7L"
class_assignment = "rule met"

[[record]]
variant = "R5I"
class_assignment = "rule met"

[[record]]
variant = "I12D"
class_assignment = "rule met"

[[record]]
variant = "K9I"
class_assignment = "rule not met"

[[record]]
variant = "S2E"
class_assignment = "rule met"

[[record]]
variant = "I16V"
class_assignment = "rule met"

[[record]]
variant = "I8A"
class_assignment = "rule met"

[[record]]
variant = "L18P"
class_assignment = "rule met"

[[record]]
variant = "K17N"
class_assignment = "rule met"

[[record]]
variant = "A13N"
class_assignment = "rule met"

[[record]]
variant = "L18G"
class_assignment = "rule met"

[[record]]
variant = "A20N"
class_assignment = "rule met"

[[record]]
variant = "A20W"
class_assignment = "rule not met"

[[record]]
variant = "N3R"
class_assignment = "rule met"

[[record]]
variant = "K15D"
class_assignment = "rule met"

[[record]]
variant = "E21A"
class_assignment = "rule not met"

[[record]]
variant = "I8T"
class_assignment = "rule met"

[[record]]
variant = "A13P"
class_assignment = "rule met"

[[record]]
variant = "T19H"
class_assignment = "rule met"

[[record]]
variant = "G4W"
class_assignment = "rule not met"

[[record]]
variant = "A13C"
class_assignment = "rule not met"

[[record]]
variant = "K9W"
class_assignment = "rule not met"

[[record]]
variant = "I12T"
class_assignment = "rule met"

[[record]]
variant = "A13D"
class_assignment = "rule met"

